Entry source: patent US20200347127A1

- ASSAYED_SYSTEM: T1, recombinant human IL-17A (human, UniProt Q16552 24-155)
- T1 construct: Bought recombinant protein (Peprotech AF-200-17); also called Peprotech AF-200-17
- T1 sequence (Q16552 24-155): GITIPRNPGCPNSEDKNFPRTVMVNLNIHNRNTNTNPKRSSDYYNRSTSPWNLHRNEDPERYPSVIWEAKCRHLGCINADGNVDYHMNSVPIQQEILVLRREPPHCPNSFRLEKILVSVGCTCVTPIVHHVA
- TEST_DETAILS: SPR (BIAcore T200), IL-17A coupled to CM5 chip, single-cycle kinetics;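 further: VH domain analytes, kinetic constants obtained by fitting blank-corrected sensorgrams to a 1:1 binding model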
REPORTED_METRIC: kon (M⁻¹ s⁻¹)
All answers are understood in M⁻¹ s⁻¹, so give the number only.

May I ask what kon has been recorded for VH 1.1.1 (clone 1.1 expressed from phagemid vector: with linker residues and His tag) (VHH, Human single VH domain; also called Family 1 (clone 1.1)) VHH: EVQLVESGGGLVQPGGSLRLSCAASGFTFSSYSMYWVRQAPGKGLEWVANIKQDGSEKYYVDSVKGRFTISRDNAKNSLFLQMNSLRAEDTAVYYCAKGEILPLHFDYWGQGTLVTVSS ?
296000

Any idea what its kon is? The binder is VH 1.21.1 (clone 1.21 expressed from phagemid vector: with linker residues and His tag) (VHH, Human single VH domain) VHH: EVQLVESGGGLVLPGGSLRLSCAASGFTFSSYSMYWVRQAPGKGLEWVAEIKQDGSEQYYVDSVKGRFTISRDNAKNSLYLQMNSLRAEDTAVYYCAKGEILPLYFDYWGQGTLVTVSS
792000

So what's the measured kon for this one? VH 1.6.1 (clone 1.6 expressed from phagemid vector: with linker residues and His tag) (VHH, Human single VH domain) VHH: EVQLVESGGGLVQPGGSLRLSCAASGFTFSSYSMYWVRQAPGKGLEWVAEIKQDGSEQYYVDSVKGRFTISRDNAKNSLYLQMNSLRAEDTAVYYCAKGEILPLYFDYWGQGTLVTVSS
770000

Given Clone 1.11 (VHH, Human single VH domain) VHH: EVQLVESGGGLVQPGGSLRLSCAASGFTFSSYQMYWVRQAPGKGLEWVASIKQDGSEEYYVDSVKGRFTISRDNAKNSLFLQMNSLRAEDTAVYYCAKGEILPLYFDYWGQGTLVTVSS , state its recorded kon.
617000
